These entries and their values trace back to patent US20190343846A1.

PROTOCOL DETAILS: Stability constant (K1:1) of active pharmaceutical ingredient/γ-cyclodextrin complexes from phase-solubility profiles
Type: physicochemical
EXPERIMENTAL SETUP: initial linear part of phase-solubility profile
# if value of K1:1 (M^−1), stability constant of drug/γ-cyclodextrin complex reaches 90 M⁻¹, tag label 1; if it stays below, tag label 0

Completed entries (count: 5):
> print(dat)
                               smiles.input      cat
1  Cc1ccc(Nc2nccc(N(C)c3ccc4c(C)n(C)nc4c3)n2)cc1S(N)(=O)=O  label 0
2  CC1(C)CNc2cc(NC(=O)c3cccnc3NCc3ccncc3)ccc21  label 1
3  COc1cc2c(Oc3ccc4[nH]c(C)cc4c3F)ncnc2cc1OCCCN1CCCC1  label 0
4  CN1CCN(c2ccc3nc(-c4c(N)c5c(F)cccc5[nH]c4=O)[nH]c3c2)CC1  label 1
5  CNC(=O)c1cc(Oc2ccc(NC(=O)Nc3ccc(Cl)c(C(F)(F)F)c3)c(F)c2)ccn1  label 1

Query compound follows.
Record `CNC(=O)c1ccccc1Sc1ccc2c(/C=C/c3ccccn3)n[nH]c2c1` ; criterion: K1:1 (M^−1), stability constant of drug/γ-cyclodextrin complex no lower than 90 M⁻¹. Met?
label 1

====

PROTOCOL DETAILS: Solubility of kinase inhibitors in aqueous γ-cyclodextrin media
Format: physicochemical
EXPERIMENTAL SETUP: aqueous eye drop medium with 16% w/v γ-cyclodextrin, aqueous with cosolvent or surfactant or cyclodextrin, thermodynamic from solid; eye drop medium: 16 % w/v γ-cyclodextrin, benzalkonium chloride 0.02%, disodium edetate 0.10%, sodium chloride 0.05%; read-out: Solubility (mg/mL) Eye drops
PROPERTY MEASURED: solubility (mg/mL)
Record the value in mg/mL, omitting the unit from your answer.

Supply reported solubility belonging to this compound: `Cc1ccc(Nc2nccc(N(C)c3ccc4c(C)n(C)nc4c3)n2)cc1S(N)(=O)=O`
0.01

====

PROTOCOL DETAILS: Solubility of kinase inhibitors in aqueous γ-cyclodextrin media
Format: physicochemical
EXPERIMENTAL SETUP: aqueous with cosolvent or surfactant or cyclodextrin, thermodynamic from solid; aqueous solution with 16 % w/v γ-cyclodextrin and tyloxapol (1% w/v); read-out: Solubility (mg/mL) Tyloxapol
PROPERTY MEASURED: solubility (mg/mL)
The figure you give is taken to be in mg/mL; do not add the unit.

For the compound `Cc1ccc(Nc2nccc(N(C)c3ccc4c(C)n(C)nc4c3)n2)cc1S(N)(=O)=O` , give its measured solubility value.
0.006

====

PROTOCOL DETAILS: Solubility of kinase inhibitors in aqueous γ-cyclodextrin media
Type: physicochemical
EXPERIMENTAL SETUP: aqueous with cosolvent or surfactant or cyclodextrin, thermodynamic from solid; aqueous solution with 4 % w/v γ-cyclodextrin and tyloxapol (1% w/v); read-out: Solubility (mg/mL) Tyloxapol
Method: Kinase inhibitors were suspended in aqueous media consisting of pure water, aqueous γ-cyclodextrin solution, aqueous solution containing γ-cyclodextrin and tyloxapol (1% w/v), and aqueous eye drop medium containing γ-cyclodextrin, benzalkonium chloride (0.02% w/v), disodium edetate (0.10% w/v) and sodium chloride (0.05% w/v). The concentration of γ-cyclodextrin varied depending on the kinase inhibitor. The solubility was determined as described in Example 10.
We begin with a simple list: items and their reported solubility.
Value expressed in mg/mL; do not type the unit.

> print(dat)
                               smiles.input  property.measured  measurement.units  quantitative.result
1  CNC(=O)c1ccccc1Sc1ccc2c(/C=C/c3ccccn3)n[nH]c2c1         solubility              mg/mL                0.008

Here is another compound to look at.
Hello, please tell me recorded solubility for this one: `CNC(=O)c1cc(Oc2ccc(NC(=O)Nc3ccc(Cl)c(C(F)(F)F)c3)c(F)c2)ccn1`
0.005

====

PROTOCOL DETAILS: Solubility of kinase inhibitors in aqueous γ-cyclodextrin media
Format: physicochemical
EXPERIMENTAL SETUP: aqueous eye drop medium with 12% w/v γ-cyclodextrin, aqueous with cosolvent or surfactant or cyclodextrin, thermodynamic from solid; eye drop medium: 12 % w/v γ-cyclodextrin, benzalkonium chloride 0.02%, disodium edetate 0.10%, sodium chloride 0.05%; read-out: Solubility (mg/mL) Eye drops
PROPERTY MEASURED: solubility (mg/mL)
Report the figure in mg/mL without appending any unit label.

Look up and report measured solubility for this entry: `COc1cc2c(Oc3ccc4[nH]c(C)cc4c3F)ncnc2cc1OCCCN1CCCC1`
4.1

====

PROTOCOL DETAILS: Solubility of kinase inhibitors in aqueous γ-cyclodextrin media
Assay type: physicochemical
EXPERIMENTAL SETUP: aqueous with cosolvent or surfactant or cyclodextrin, thermodynamic from solid; aqueous solution with 12 % w/v γ-cyclodextrin and tyloxapol (1% w/v); read-out: Solubility (mg/mL) Tyloxapol
PROPERTY MEASURED: solubility (mg/mL)
The response must be a number in mg/mL with no trailing unit.

# return recorded solubility for input COc1cc2c(Oc3ccc4[nH]c(C)cc4c3F)ncnc2cc1OCCCN1CCCC1 [Cediranib]
2.8

====

PROTOCOL DETAILS: Solubility of kinase inhibitors in aqueous γ-cyclodextrin media
Type: physicochemical
EXPERIMENTAL SETUP: aqueous with cosolvent or surfactant or cyclodextrin, thermodynamic from solid; aqueous γ-cyclodextrin solution, 8 % w/v γ-cyclodextrin; read-out: Solubility (mg/mL) γ-Cyclodextrin
PROPERTY MEASURED: solubility (mg/mL)
Give the value in mg/mL but do not write mg/mL after it.

Please give the documented solubility of CC1(C)CNc2cc(NC(=O)c3cccnc3NCc3ccncc3)ccc21 [Motesanib]
0.09

====

PROTOCOL DETAILS: Solubility of kinase inhibitors in aqueous γ-cyclodextrin media
Assay type: physicochemical
EXPERIMENTAL SETUP: aqueous with cosolvent or surfactant or cyclodextrin, thermodynamic from solid; aqueous γ-cyclodextrin solution, 4 % w/v γ-cyclodextrin; read-out: Solubility (mg/mL) γ-Cyclodextrin
The compounds listed here are annotated with their solubility.
Numeric answer only, unit mg/mL assumed.

> print(dat)
                               smiles.input  measurement.units  quantitative.result
1  CNC(=O)c1ccccc1Sc1ccc2c(/C=C/c3ccccn3)n[nH]c2c1              mg/mL                0.003

Note: attention shifts to another entry.
For the compound `CNC(=O)c1cc(Oc2ccc(NC(=O)Nc3ccc(Cl)c(C(F)(F)F)c3)c(F)c2)ccn1` , give its measured solubility value.
0.0005
